INH values, listed per item
target: Solute carrier organic anion transporter family member 2B1 (Homo sapiens, UniProt O94956); assay: Inhibition of human liver OATP2B1 expressed in HEK293 Flp-In cells assessed as reduction in [3H]E3S uptake at 20 uM incubated for 5 mins by scintillation counting; details: hek293, 5 min
Sequence (O94956 whole entry): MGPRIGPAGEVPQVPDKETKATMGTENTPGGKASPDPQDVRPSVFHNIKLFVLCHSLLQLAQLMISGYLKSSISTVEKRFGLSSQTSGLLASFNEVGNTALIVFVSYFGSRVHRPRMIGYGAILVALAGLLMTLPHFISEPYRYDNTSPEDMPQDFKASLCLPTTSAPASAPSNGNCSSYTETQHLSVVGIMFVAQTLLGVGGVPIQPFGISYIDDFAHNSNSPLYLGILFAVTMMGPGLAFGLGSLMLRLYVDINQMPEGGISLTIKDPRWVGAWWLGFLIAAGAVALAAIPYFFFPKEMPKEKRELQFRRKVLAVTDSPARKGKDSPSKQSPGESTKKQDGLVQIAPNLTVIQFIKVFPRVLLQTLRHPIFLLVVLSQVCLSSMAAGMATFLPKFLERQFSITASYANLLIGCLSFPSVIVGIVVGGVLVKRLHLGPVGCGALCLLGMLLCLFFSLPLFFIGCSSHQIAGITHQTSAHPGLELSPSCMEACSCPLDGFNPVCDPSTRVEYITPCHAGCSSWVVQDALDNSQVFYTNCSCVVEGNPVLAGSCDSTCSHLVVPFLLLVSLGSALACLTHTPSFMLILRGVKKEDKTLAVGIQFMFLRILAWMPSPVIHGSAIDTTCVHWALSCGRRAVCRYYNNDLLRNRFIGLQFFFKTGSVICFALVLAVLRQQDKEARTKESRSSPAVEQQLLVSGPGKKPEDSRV
The reply should be a number in %, with the unit left off.

Illustrative cases are given below, each with its answer.
chemical_string=COc1cc(Cc2cnc(N)nc2N)cc(OC)c1OC measured_number=35.1
chemical_string=N[C@@H](Cc1cc(I)c(Oc2cc(I)c(O)c(I)c2)c(I)c1)C(=O)O measured_number=63.7
chemical_string=CO[C@@H]1[C@@H](OC(N)=O)[C@@H](O)[C@H](Oc2ccc3c(O)c(NC(=O)c4ccc(O)c(CC=C(C)C)c4)c(=O)oc3c2C)OC1(C)C measured_number=85.6

Challenge: Determine its reported INH: `CCCCC(=O)N(Cc1ccc(-c2ccccc2-c2nnn[nH]2)cc1)[C@H](C(=O)O)C(C)C`
Response given: 12.3

Challenge: Determine its reported INH: `O=C(O)c1cc(/N=N/c2ccc(S(=O)(=O)Nc3ccccn3)cc2)ccc1O`
Response given: 92.3

* * *

target: Solute carrier organic anion transporter family member 2B1 (Homo sapiens); experiment: Inhibition of human liver OATP2B1 expressed in HEK293 Flp-In cells assessed as reduction in [3H]E3S uptake at 20 uM incubated for 5 mins by scintillation counting; settings: hek293, 5 min
readout-label: INH (%)
The reply should be a number in %, with the unit left off.

Illustrative cases are given below, each with its answer.
molecule="CC(C)NCC(O)COc1cccc2[nH]ccc12 (stereo unspecified)" measured_number=-10.8
molecule="C[C@H](CCC(=O)NCC(=O)O)[C@H]1CC[C@H]2[C@@H]3CC[C@@H]4C[C@H](O)CC[C@]4(C)[C@H]3C[C@H](O)[C@]12C [GLYCODEOXYCHOLATE]" measured_number=53.8
molecule=CC(=O)Oc1ccc2c(c1)Oc1cc(OC(C)=O)ccc1C21OC(=O)c2cc(C(=O)O)ccc21 measured_number=-24.9
molecule=COc1ccc2c(c1)c(CC(=O)O)c(C)n2C(=O)c1ccc(Cl)cc1 measured_number=-82.4
molecule=C[n+]1ccccc1 measured_number=12.8
molecule="O=C(NCCN1CCOCC1)c1ccc(Cl)cc1 [MOCLOBEMIDE]" measured_number=27.5
molecule="CCN(CC)CCCC(C)Nc1ccnc2cc(Cl)ccc12 (stereo unspecified)" measured_number=23.5
molecule="COc1ccc(Cl)cc1C(=O)NCCc1ccc(S(=O)(=O)NC(=O)NC2CCCCC2)cc1 [GLYBURIDE]" measured_number=77.4
molecule=CCOc1ccc(NC(C)=O)cc1 measured_number=-0.1
molecule=COc1cc2c(cc1OC)CN(CCc1ccc(NC(=O)c3cccc4c(=O)c5cccc(OC)c5[nH]c34)cc1)CC2 measured_number=67.2

Challenge: Determine its reported INH: `CCCc1nn(C)c2c(=O)[nH]c(-c3cc(S(=O)(=O)N4CCN(C)CC4)ccc3OCC)nc12`
Response given: 45.9
